Target: Broad substrate specificity ATP-binding cassette transporter ABCG2 (Homo sapiens, UniProt Q9UNQ0)
Sequence (Q9UNQ0 whole entry): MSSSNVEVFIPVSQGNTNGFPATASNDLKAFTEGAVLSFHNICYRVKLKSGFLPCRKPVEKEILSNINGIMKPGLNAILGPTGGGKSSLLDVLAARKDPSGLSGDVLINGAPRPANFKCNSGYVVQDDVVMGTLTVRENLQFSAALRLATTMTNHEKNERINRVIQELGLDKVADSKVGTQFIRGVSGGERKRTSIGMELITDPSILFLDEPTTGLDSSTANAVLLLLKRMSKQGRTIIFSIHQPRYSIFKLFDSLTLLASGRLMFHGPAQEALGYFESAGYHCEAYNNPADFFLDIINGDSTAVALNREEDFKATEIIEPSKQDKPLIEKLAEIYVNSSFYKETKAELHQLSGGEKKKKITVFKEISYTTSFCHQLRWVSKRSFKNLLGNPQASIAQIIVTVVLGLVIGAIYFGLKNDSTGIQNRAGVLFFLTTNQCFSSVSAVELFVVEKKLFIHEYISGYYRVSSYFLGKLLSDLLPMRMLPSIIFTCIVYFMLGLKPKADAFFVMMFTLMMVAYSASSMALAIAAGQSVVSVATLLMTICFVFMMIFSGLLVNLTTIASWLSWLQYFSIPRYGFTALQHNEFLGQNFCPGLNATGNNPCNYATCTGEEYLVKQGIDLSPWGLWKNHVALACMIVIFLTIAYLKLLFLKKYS
Assay: Inhibition of human ABCG2 expressed in MDCK2 cells co-expressing GFP preincubated for 30 mins followed by Hoechst 33342 addition and measured every 60 sec for 120 mins by fluorescence assay
Assay type: cell-based, MDCK-II
measurement label: IC50 (µM)

>  <structure smiles string>
Cc1cc(Nc2ccc(F)c(C#N)c2)nc(-c2ccccc2)n1

>  <unit descriptor>
µM

>  <measured number>
0.307

$$$$

I. COc1cccc(Nc2cc(C)nc(-c3ccccc3)n2)c1
II. Cc1cc(Nc2cccc(CO)c2)nc(-c2ccccc2)n1
Enquiry: Lower IC50: I or II ? Provide the label of your selected option as the answer.
Return: I

* * *

molecular target: ATP-dependent translocase ABCB1 (Homo sapiens); assay: Inhibition of human ABCB1 expressed in A2780/ADR cells preincubated for 30 mins followed by calcein AM addition and measured every 60 secs for 60 mins by fluorescence assay
Sequence (P08183 whole entry): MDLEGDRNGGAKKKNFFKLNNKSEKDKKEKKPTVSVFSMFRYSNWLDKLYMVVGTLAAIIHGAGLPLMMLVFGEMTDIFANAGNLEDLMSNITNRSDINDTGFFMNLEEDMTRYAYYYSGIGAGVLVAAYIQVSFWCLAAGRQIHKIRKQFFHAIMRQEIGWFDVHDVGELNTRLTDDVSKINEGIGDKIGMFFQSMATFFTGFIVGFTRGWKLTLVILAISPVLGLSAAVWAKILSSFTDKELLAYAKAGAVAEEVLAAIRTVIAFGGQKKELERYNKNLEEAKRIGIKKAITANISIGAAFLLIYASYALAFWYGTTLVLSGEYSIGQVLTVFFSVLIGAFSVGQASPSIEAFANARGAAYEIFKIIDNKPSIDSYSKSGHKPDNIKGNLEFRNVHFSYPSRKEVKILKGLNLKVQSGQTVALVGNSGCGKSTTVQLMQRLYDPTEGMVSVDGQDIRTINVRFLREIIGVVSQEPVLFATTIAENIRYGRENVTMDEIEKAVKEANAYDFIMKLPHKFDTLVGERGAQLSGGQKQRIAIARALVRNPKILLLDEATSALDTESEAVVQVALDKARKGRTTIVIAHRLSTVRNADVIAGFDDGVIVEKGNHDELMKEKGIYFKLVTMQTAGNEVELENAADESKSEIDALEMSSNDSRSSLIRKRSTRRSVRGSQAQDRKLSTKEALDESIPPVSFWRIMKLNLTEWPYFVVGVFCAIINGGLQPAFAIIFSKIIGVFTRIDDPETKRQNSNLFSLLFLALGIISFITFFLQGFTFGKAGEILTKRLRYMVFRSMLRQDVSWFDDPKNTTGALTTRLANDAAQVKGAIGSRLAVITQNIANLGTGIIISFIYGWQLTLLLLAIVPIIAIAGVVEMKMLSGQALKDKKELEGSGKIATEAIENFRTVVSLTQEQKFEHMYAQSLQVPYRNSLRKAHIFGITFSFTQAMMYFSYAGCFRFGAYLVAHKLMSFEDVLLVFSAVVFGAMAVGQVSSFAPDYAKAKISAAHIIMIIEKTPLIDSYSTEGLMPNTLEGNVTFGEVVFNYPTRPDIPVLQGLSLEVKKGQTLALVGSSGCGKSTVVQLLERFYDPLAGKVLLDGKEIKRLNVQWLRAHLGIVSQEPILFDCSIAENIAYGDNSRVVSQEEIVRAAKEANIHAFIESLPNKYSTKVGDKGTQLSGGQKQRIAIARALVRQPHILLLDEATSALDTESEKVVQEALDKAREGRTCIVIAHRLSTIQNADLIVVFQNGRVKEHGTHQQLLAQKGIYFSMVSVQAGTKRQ
pIC50: −log10 of the molar value.
measurement label: pIC50

>  <structure smiles string>
COc1cccc(Nc2cc(C)nc(-c3ccccc3)n2)c1

>  <pIC50>
4.87

$$$$

a. Cc1cc(Nc2cccc(Br)c2)nc(-c2ccccc2)n1
b. Cc1cc(Nc2ccc3c(c2)C(=O)NC3=O)nc(-c2ccccc2)n1
Enquiry: Looking at recorded values for pIC50, does a or b come in lower? Label of pick, please.
Return: b
(b: 4.75, a: 5.15)

* * *

Molecular target: ABCG2 (Homo sapiens, UniProt Q9UNQ0)
Sequence (Q9UNQ0 whole entry): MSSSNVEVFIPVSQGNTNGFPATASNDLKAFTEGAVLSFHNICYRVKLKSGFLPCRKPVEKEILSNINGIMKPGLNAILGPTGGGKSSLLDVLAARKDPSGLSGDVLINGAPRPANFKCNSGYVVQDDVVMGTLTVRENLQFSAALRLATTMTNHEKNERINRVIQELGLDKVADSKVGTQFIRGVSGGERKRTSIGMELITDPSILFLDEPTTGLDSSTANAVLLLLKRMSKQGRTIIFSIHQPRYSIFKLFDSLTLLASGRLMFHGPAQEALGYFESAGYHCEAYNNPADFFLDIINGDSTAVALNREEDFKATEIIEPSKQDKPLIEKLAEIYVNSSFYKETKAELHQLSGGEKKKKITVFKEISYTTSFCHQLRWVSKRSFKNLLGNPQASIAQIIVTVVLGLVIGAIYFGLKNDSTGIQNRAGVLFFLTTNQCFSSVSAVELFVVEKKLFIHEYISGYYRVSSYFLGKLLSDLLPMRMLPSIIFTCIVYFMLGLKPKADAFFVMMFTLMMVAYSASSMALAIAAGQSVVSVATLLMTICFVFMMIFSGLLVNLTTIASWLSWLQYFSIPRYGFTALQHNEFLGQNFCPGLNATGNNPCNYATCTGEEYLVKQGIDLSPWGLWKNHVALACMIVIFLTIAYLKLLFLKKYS
Experiment: Inhibition of human ABCG2 expressed in MDCK2 cells co-expressing GFP preincubated for 30 mins followed by Hoechst 33342 addition and measured every 60 sec for 120 mins by fluorescence assay relative to control
Assay type: cell-based, MDCK-II
Conditions: probe Hoechst 33342, read-out: Imax
measurement label: Emax at 2 h (%)

>  <structure smiles string>
COc1cc(Nc2cc(C)nc(-c3ccccc3)n2)ccc1Br

>  <Emax at 2 h, %>
100

$$$$
>  <structure smiles string>
Cc1cc(Nc2ccc([N+](=O)[O-])c(Cl)c2)nc(-c2ccccc2)n1

>  <Emax at 2 h, %>
76

$$$$
>  <structure smiles string>
Cc1cc(Nc2ccc(C#N)c(C#N)c2)nc(-c2ccccc2)n1

>  <Emax at 2 h, %>
117

$$$$
>  <structure smiles string>
Cc1cc(Nc2cccc(Cl)c2)nc(-c2ccccc2)n1

>  <Emax at 2 h, %>
100

$$$$
>  <structure smiles string>
COc1cccc(Nc2cc(C)nc(-c3ccccc3)n2)c1

>  <Emax at 2 h, %>
96

$$$$
>  <structure smiles string>
Cc1cc(Nc2ccc(CC#N)cc2)nc(-c2ccccc2)n1

>  <Emax at 2 h, %>
100

$$$$
>  <structure smiles string>
Cc1cc(Nc2ccc([N+](=O)[O-])cc2)nc(-c2ccccc2)n1

>  <Emax at 2 h, %>
79

$$$$
>  <structure smiles string>
Cc1cc(Nc2ccc(C#N)c(C)c2)nc(-c2ccccc2)n1

>  <Emax at 2 h, %>
106

$$$$
>  <structure smiles string>
Cc1cc(Nc2cccc([N+](=O)[O-])c2)nc(-c2ccccc2)n1

>  <Emax at 2 h, %>
80

$$$$
>  <structure smiles string>
Cc1cc(Nc2cccc(CO)c2)nc(-c2ccccc2)n1

>  <Emax at 2 h, %>
100

$$$$
>  <structure smiles string>
Cc1cc(Nc2ccc(C#N)c(Br)c2)nc(-c2ccccc2)n1

>  <Emax at 2 h, %>
90

$$$$
>  <structure smiles string>
COc1ccc(Nc2cc(C)nc(-c3ccccc3)n2)cc1F

>  <Emax at 2 h, %>
100

$$$$
>  <structure smiles string>
Cc1cc(Nc2ccc(F)c(C#N)c2)nc(-c2ccccc2)n1

>  <Emax at 2 h, %>
100

$$$$
